Entries and their viability at 72 h, 50 mg/L
Assay: MTT-based viability assay
Format: cell-based
Conditions: human, MRC-5 human fibroblasts; 50 mg/L, 72 h; read-out: Viability of MRC-5 cells (% of viable cells ± SD)
A number alone suffices; assume %.

Some solved cases for reference:
{"columns": ["COMPOUND", "MEASURED_QUANTITY", "MEASURED"],
 "data": [
  ["COc1c(B(O)O)cccc1B(O)O [2g]", "viability at 72 h, 50 mg/L", 103],
  ["Cl.OB(O)c1cncc(B(O)O)c1 [6a]", "viability at 72 h, 50 mg/L", 127],
  ["OB(O)c1ccc(B(O)O)s1 [5b]", "viability at 72 h, 50 mg/L", 87.3],
  ["OB(O)c1cc(F)c(B(O)O)c(F)c1F [1f]", "viability at 72 h, 50 mg/L", 78.1],
  ["OB(O)c1ccc(B(O)O)c(B(O)O)c1 [4b, benzene-1,2,4-triboronic]", "viability at 72 h, 50 mg/L", 97.3]
]}

Query: viability at 72 h, 50 mg/L; subject: OB(O)c1cc(Br)c(B(O)O)cc1Br [1i] 101

Query: viability at 72 h, 50 mg/L; subject: OB(O)c1ccc(Br)c(B(O)O)c1 [2f] 76.2

Query: viability at 72 h, 50 mg/L; subject: OB(O)c1ccc(C(F)(F)F)cc1B(O)O [3e] 64.4

Query: viability at 72 h, 50 mg/L; subject: OB(O)c1cccc(F)c1B(O)O [3b] 87.1

Query: viability at 72 h, 50 mg/L; subject: OB(O)c1cc(F)c(B(O)O)c(F)c1 [1d] 83.3

Query: viability at 72 h, 50 mg/L; subject: OB(O)c1ccsc1B(O)O [5a, thiophene-2,3-diboronic acid] 79.2

Query: viability at 72 h, 50 mg/L; subject: OB(O)c1cc(F)c(F)c(B(O)O)c1 [2d] 75.2

Query: viability at 72 h, 50 mg/L; subject: OB(O)c1c(F)c(F)c(F)c(F)c1B(O)O [3d] 77.7

* * *

Test system: E. coli 77 CMY-2(+)
Assay: MIC of tested agent alone, microdilution
Type: cell-based
Details: Escherichia coli; read-out: MIC of agent alone
MEASURED_QUANTITY: MIC (µg/mL)
A number alone suffices; assume µg/mL.

Some solved cases for reference:
{"columns": ["MOLECULE", "UNITS_SYMBOL", "MIC"],
 "data": [
  ["OB(O)c1cc(F)c(B(O)O)cc1F [1e]", "µg/mL", 100],
  ["OB(O)c1ccc(B(O)O)c(F)c1F [1c]", "µg/mL", 200]
]}

Query: MIC; subject: OB(O)c1cc(B(O)O)c(F)cc1F [2c] 200

Query: MIC; subject: OB(O)c1ccccc1B(O)O [3a, phenylene-1,2-diboronic acid] 400

Query: MIC; subject: OB(O)c1cc(F)c(F)c(B(O)O)c1 [2d] 200

Query: MIC; subject: OB(O)c1cc(F)cc(B(O)O)c1 [2b] 400

Query: MIC; subject: OB(O)c1cc(Br)c(B(O)O)cc1Br [1i] 100

Query: MIC; subject: OB(O)c1cc(F)ccc1F [7a, 2,5-difluorophenylboronic acid] 100
